Molecular target: T1, His-tagged mouse CD38 (ACRO Biosystems #CD8-M5223) (mouse, UniProt P56528 45-304)
T1 construct: bought recombinant protein with His tag; also called Murine
T1 sequence (looked up): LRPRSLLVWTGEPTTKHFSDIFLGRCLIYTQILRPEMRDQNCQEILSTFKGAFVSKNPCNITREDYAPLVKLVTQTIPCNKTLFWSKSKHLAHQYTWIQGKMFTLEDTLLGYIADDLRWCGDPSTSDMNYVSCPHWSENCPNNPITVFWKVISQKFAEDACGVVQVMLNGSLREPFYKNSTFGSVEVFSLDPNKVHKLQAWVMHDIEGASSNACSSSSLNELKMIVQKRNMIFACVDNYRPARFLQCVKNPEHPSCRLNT
Assay: SPR, captured scFv-Fc, His-CD38 analyte;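 further: SPR on a Carterra LSA, scFv-Fc captured by anti-human Fc on HC30M chip, His-tagged CD38 (human, mouse, cynomolgus) flowed as analyte in eight 1:2 steps from 400 nM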
measure.name: Kd (nM)
Hi! Could you send only the number? It should be in nM, unit omitted.

1. 40566p1.A7 (scFv, V domains shown, tested as scFv-Fc supernatant) VH: RELVESGGGVVRPGESLRLSCAASGFTFDNYDMTWVRQAPGEGLEWVSFISSRGTFTYYTDSVRGRFTISRDNSKNTLYLEMNSLRAEDTAIYYCAKDSGEYYFFDYWGLGTLVTVSS VL: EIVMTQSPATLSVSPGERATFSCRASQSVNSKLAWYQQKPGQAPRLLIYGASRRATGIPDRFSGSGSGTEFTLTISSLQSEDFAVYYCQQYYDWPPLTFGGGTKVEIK: 1.31
2. 40566p1.C1 (scFv, V domains shown, tested as scFv-Fc supernatant) VH: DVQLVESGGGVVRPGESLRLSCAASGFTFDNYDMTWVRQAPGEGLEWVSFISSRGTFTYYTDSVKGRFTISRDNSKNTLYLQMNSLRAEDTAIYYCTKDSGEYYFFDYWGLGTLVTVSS VL: ETVMTQSPATLSVSPGERATFSCRASQSVNSKLAWYQQKPGQAPRLLIYGASRRATGIPDRFSGSGSGTEFTLTISSLQSEDFAVYYCQQYYDWPPLTFGGGTKVEIK: 0.478

Incoming: Item under review: 40566p1.C11 (scFv, V domains shown, tested as scFv-Fc supernatant) VH: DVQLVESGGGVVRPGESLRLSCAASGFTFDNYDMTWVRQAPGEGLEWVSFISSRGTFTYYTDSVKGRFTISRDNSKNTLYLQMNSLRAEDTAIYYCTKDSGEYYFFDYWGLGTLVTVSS VL: EIVLTQSPGTLSLSPGERATLSCRASQTVGSKLAWYQQKPGQAPRLLIFSASSRATGIPARFSGSGSGTEFTLTISSLQSEDFAVYYCQQYYDWPPLTFGGGTKVEIK . Reported Kd?
Outgoing: 1.97
